# EXPERIMENTAL_PROTOCOL: NFkB reporter suppression in cystic fibrosis bronchial cells – cell-based, uHTS hits, panel, cytotoxicity readout, dose response (AID 624344)
# EXPERIMENTAL_SETUP: CF bronchial epithelial cells, PAF-induced NFkB reporter inhibition; with PAF, mean of runs
The source made the active and inactive calls. The rule behind the calls is not given here.
Allowed answers: active, inactive

Please review the entries below; each comes with its answer.
Q) Tell me the assay call for CN(CCC#N)C(=O)COC(=O)c1ccccc1C(=O)c1ccc(Cl)c([N+](=O)[O-])c1 please.
A) active

Q) Tell me the assay call for O=C(NNc1ccccc1Cl)C(O)(c1cccc(C(F)(F)F)c1)c1cccc(C(F)(F)F)c1 please.
A) active

Q) Tell me the assay call for O=C(COC(=O)c1c2c(nc3ccccc13)CCN(Cc1ccccc1)C2)Nc1c(F)cccc1F please.
A) active

---
Q) Tell me the assay call for O=[N+]([O-])c1ccc(Oc2ccc(F)cc2Br)c2ccncc12 please.
A) active

Q) Tell me the assay call for CCOc1ccc(Nc2ncnc3ccc([N+](=O)[O-])cc23)cc1 please.
A) active

Q) Tell me the assay call for FC(F)(F)c1nnc2c(Sc3ccc(Cl)cc3)nc3ccccc3n12 please.
A) active

Q) Tell me the assay call for CC1Sc2ccc(Cl)cc2-c2nc(N)ncc21 (configuration not stated) please.
A) active

Q) Tell me the assay call for COc1cc(C(=O)Nc2nnc(-c3sccc3C)s2)cc(OC)c1OC please.
A) inactive

----------
# EXPERIMENTAL_PROTOCOL: NFkB reporter suppression in cystic fibrosis bronchial cells – cell-based, uHTS hits, panel, cytotoxicity readout, dose response (AID 624344)
# EXPERIMENTAL_SETUP: CF bronchial epithelial cells, PAF-induced NFkB reporter inhibition; with PAF, mean of runs
MEASURED_ATTRIBUTE: IC50

Q) Look up IC50: Cc1cccc2sc(N(CCCN(C)C)C(=O)CCS(=O)(=O)c3ccccc3)nc12
A) 3.22 µM

Q) Look up IC50: COc1ccc(-c2csc3ncnc(NCCO)c23)cc1
A) 1.85 µM

Q) Look up IC50: NC(=O)N/N=C/c1c(Sc2nnnn2-c2ccccc2)nc2ccccn2c1=O
A) 0.653 µM

Q) Look up IC50: Cc1ccccc1C(=O)N1CCN(c2ccc(NC(=O)c3cccc(OC(C)C)c3)cc2)CC1
A) 6.7 µM

Q) Look up IC50: Cn1cccc1C(=O)NC(=O)COC(=O)c1ccc(S(C)(=O)=O)c([N+](=O)[O-])c1
A) 5.26 µM

Q) Look up IC50: C[C@@H]1CN([C@H](C)CO)C(=O)c2cc(NC(=O)Nc3ccc(C(F)(F)F)cc3)ccc2O[C@H]1CN(C)S(=O)(=O)c1ccc(Cl)cc1
A) 14.1 µM

---
Q) Look up IC50: CC(=O)c1ccc(Nc2ncnc3ccc(Br)cc23)cc1
A) 2.18 µM

Q) Look up IC50: COc1cccc(NC(=O)CN(C)CC(=O)Nc2ccc(C)c([N+](=O)[O-])c2)c1
A) 6.21 µM

Q) Look up IC50: COc1cc(CN(C)c2ccc(S(=O)(=O)N3CCCC3)cn2)ccc1OC(F)F
A) 0.453 µM

----------
Listed compounds paired with reported pIC50
# EXPERIMENTAL_PROTOCOL: NFkB reporter suppression in cystic fibrosis bronchial cells – cell-based, uHTS hits, panel, cytotoxicity readout, dose response (AID 624344)
# EXPERIMENTAL_SETUP: CF bronchial epithelial cells, PAF-induced NFkB reporter inhibition; with PAF, mean of runs
Units for pIC50: none; it is -log10 of a concentration expressed in mol/L.

Worked cases, answers included:
Q) Look up pIC50: CCCCNc1c(-c2cccc(-c3ccc(OC)cc3)c2)nc2ccc(C)cn12
A) 5.30

Q) Look up pIC50: CN(c1ncnc(N)c1[N+](=O)[O-])C1CCCCC1
A) 5.96

Q) Look up pIC50: C/C(=N\Nc1cc(N2CCOCC2)ncn1)c1cccc([N+](=O)[O-])c1
A) 5.38

Q) Look up pIC50: COc1ccccc1-n1nnnc1S(=O)(=O)Cc1ccc(Cl)cc1
A) 5.89

Turning to the following compound.
Q) Look up pIC50: CCOC(=O)N1CCC(NC(=O)c2ccc3c(c2)N=C(C)c2c(C)ccc(C)c2S3)CC1
A) 4.96
